// provenance: patent US20220119868A1

- target: RNA motif 5′GAU3′/3′C_A5′ (from RNA library C)
- assay_explanation: In solution, fluorescence-based binding affinity assay
measurement_kind: Kd (nM)

chemical_smiles: O=C(Nc1ccc(C2=NCCN2)cc1)c1cc(C(=O)Nc2ccc(C3=NCCN3)cc2)cc(C(=O)Nc2ccc(C3=NCCN3)cc2)c1
measurement_kind: Kd
units_text: nM
test_result: 600

---

- target: HCV RNA motif 5′GUG3′/3′C_C5′ (SL I and SL III)
- assay_explanation: In solution, fluorescence-based binding affinity assay, HCV RNA motifs
pKd: −log10 of the molar value.
Measured pKd accompanies every entry in the list below.
measurement_kind: pKd

molecule: O=C(Nc1ccc(C2=NCCN2)cc1)c1cc(C(=O)Nc2ccc(C3=NCCN3)cc2)cc(C(=O)Nc2ccc(C3=NCCN3)cc2)c1 [Compound 8]
measurement_kind: pKd
test_result: 5.85
//
molecule: O=C(Nc1cccc(NC(=O)Nc2cc(C(=O)Nc3ccc(C4=NCCN4)cc3)ccc2C(=O)Nc2ccc(C3=NCCN3)cc2)c1)Nc1cc(C(=O)Nc2ccc(C3=NCCN3)cc2)ccc1C(=O)Nc1ccc(C2=NCCN2)cc1 [Compound 7]
measurement_kind: pKd
test_result: 6.33
//
molecule: O=C(Nc1cccc(C2=NCCN2)c1)c1ccc(-c2ccc(C(=O)Nc3cccc(C4=NCCN4)c3)cc2)cc1 [Compound 10]
measurement_kind: pKd
test_result: 5.47
